Assign pIC50 to each entry below.
System: P. falciparum Nigerian (chloroquine susceptible strain)
assay method text: Anti-malarial activity on P. falciparum Nigerian strain, tritiated hypoxanthine incorporation
Assay type: cell-based, Plasmodium falciparum
measurement setup: Nigerian (CQS), 72 hrs; read-out: IC50
One number for each entry, as −log10 of the molar value.

[[record]]
compound = "Clc1ccc2c(NCCNC3CCC4(CC3)OOC3(c5ccccc5)CC(c5ccccc5)=CC3O4)ccnc2c1.O=C(O)CC(O)(CC(=O)O)C(=O)O.O=C(O)CC(O)(CC(=O)O)C(=O)O (centres unmarked)"
recorded_number = 8.10


The record that follows has no pIC50 shown yet.
What value of measured pIC50 is listed for O=C1CCC2(CC1)OOC1(c3ccccc3)CC(c3ccccc3)=CC1O2 (centres unmarked) ?
7.35
